B1: TPR t1 (parent)
chain: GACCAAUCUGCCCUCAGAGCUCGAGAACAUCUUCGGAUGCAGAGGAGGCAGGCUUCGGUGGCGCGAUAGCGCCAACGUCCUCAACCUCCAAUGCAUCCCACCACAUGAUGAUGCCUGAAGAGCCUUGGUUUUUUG

variants of: B1; experiment: polymerase ribozyme fitness, log enrichment relative to wild type (log ratio); higher = more active; in vitro selection for triplet polymerase activity
Classify as follows. Reported polymerase ribozyme fitness (log ratio) greater than or equal to -2: YES. Reported polymerase ribozyme fitness (log ratio) below: NO.

C70A U78C G113A: NO

Decide: is the reported value of polymerase ribozyme fitness (log ratio) for C13A G19A G52C C76G A118U C124A U133A equal to or greater than -2?
NO

Decide: is the reported value of polymerase ribozyme fitness (log ratio) for C22A C88U equal to or greater than -2?
NO

Decide: is the reported value of polymerase ribozyme fitness (log ratio) for G48C C73G G93A C124A equal to or greater than -2?
YES

Decide: is the reported value of polymerase ribozyme fitness (log ratio) for G63U C89U A90G U112A C123G equal to or greater than -2?
YES

Decide: is the reported value of polymerase ribozyme fitness (log ratio) for C12A G58A equal to or greater than -2?
YES

Decide: is the reported value of polymerase ribozyme fitness (log ratio) for A6G C11A U14A C28A G69U U78C equal to or greater than -2?
NO

Decide: is the reported value of polymerase ribozyme fitness (log ratio) for U9A C13U C79U C114A equal to or greater than -2?
YES

Decide: is the reported value of polymerase ribozyme fitness (log ratio) for G61A C80A equal to or greater than -2?
NO

Decide: is the reported value of polymerase ribozyme fitness (log ratio) for A16C C40G C56A equal to or greater than -2?
NO

Decide: is the reported value of polymerase ribozyme fitness (log ratio) for G63A C79A equal to or greater than -2?
NO
